test system: MG63 (osteosarcoma); experiment: MTT growth inhibition of human solid tumor cells, 72 h; format: cell-based; details: Homo sapiens, MG-63, MTT
Kindly supply the reported log10(IC50) values for the records listed here.
For clarity, the numbers are log10 values of IC50 expressed in mg/L.

q: Fill in: log10(IC50) of `COC(=O)C[C@](O)(CCCC(C)(C)OC(=O)Cc1ccccc1)C(=O)O[C@@H]1C(OC)=C[C@]23CCCN2CCc2cc4c(cc2[C@H]13)OCO4` is ___
a: -2.22

q: Can you look up the measured log10(IC50) of `COC(=O)C[C@](O)(CCCC(C)(C)OC(=O)C1CCCC1)C(=O)O[C@@H]1C(OC)=C[C@]23CCCN2CCc2cc4c(cc2[C@H]13)OCO4` for me?
a: -1.68

q: Name the recorded log10(IC50) for `COC(=O)C[C@](O)(CCCC(C)(C)OC(=O)c1ccco1)C(=O)O[C@@H]1C(OC)=C[C@]23CCCN2CCc2cc4c(cc2[C@H]13)OCO4` .
a: -1.70

q: Quick one: log10(IC50) of COC(=O)C[C@](O)(CCCC(C)(C)O)C(=O)O[C@@H]1C(OC)=C[C@]23CCCN2CCc2cc4c(cc2[C@H]13)OCO4 [HHT, reference compound] ?
a: -2.00

q: State the recorded log10(IC50) for this entry: `COC(=O)C[C@@](CCCC(C)(C)OC(C)=O)(OC(C)=O)C(=O)O[C@@H]1C(OC)=C[C@]23CCCN2CCc2cc4c(cc2[C@H]13)OCO4`
a: -1.70

q: Item `COC(=O)C[C@](O)(CCCC(C)(C)OC(C)=O)C(=O)O[C@@H]1C(OC)=C[C@]23CCCN2CCc2cc4c(cc2[C@H]13)OCO4` has what recorded log10(IC50)?
a: -2.22

q: State the recorded log10(IC50) for this entry: `COC(=O)C[C@](O)(CCCC(C)(C)OC(=O)C1CC1)C(=O)O[C@@H]1C(OC)=C[C@]23CCCN2CCc2cc4c(cc2[C@H]13)OCO4`
a: -1.92

q: What does the record list as log10(IC50) for `COC(=O)C[C@](O)(CCCC(C)(C)OC(=O)c1cccnc1Cl)C(=O)O[C@@H]1C(OC)=C[C@]23CCCN2CCc2cc4c(cc2[C@H]13)OCO4` ?
a: -2.49

q: Reported log10(IC50), molecule `COC(=O)C[C@](O)(CCCC(C)(C)OC(=O)c1scnc1C)C(=O)O[C@@H]1C(OC)=C[C@]23CCCN2CCc2cc4c(cc2[C@H]13)OCO4` : ____
a: -2.22

q: Please give the measured log10(IC50) for this molecule: `COC(=O)C[C@@](CCCC(C)(C)OC(=O)c1cccs1)(OC(=O)c1cccs1)C(=O)O[C@@H]1C(OC)=C[C@]23CCCN2CCc2cc4c(cc2[C@H]13)OCO4`
a: -0.70

Where do the numbers come from? From patent US9428519B2.
